System: RAW-Dual
Experiment: NF-kB SEAP reporter activity, fold change vs agonist alone; cytotoxicity flag (confluency mask): not cytotoxic; higher = enhanced NF-kB activity
Conditions: agonist: Pam3CSK4 (TLR2/1) 0.1 ug/mL
The full ranking holds about 2,900 compounds; the median of “NF-kB SEAP reporter activity, fold change vs agonist alone” is about 0.99, and the highest 2% start at about 2.6. The entries come from a sample that favours the highest values as a whole.
# binarize NF-kB SEAP reporter activity: threshold 0.9 inclusive, high side fulfilled, low side not fulfilled

Please review the entries below; each comes with its answer.
molecule	assigned.label
CCCS(=O)(=O)Nc1ccc(F)c(C(=O)c2c[nH]c3ncc(-c4ccc(Cl)cc4)cc23)c1F (library stock concentration (final ~1000-fold dilution): 10 mM)	not fulfilled
Nc1cc(C(F)(F)F)c(-c2nc(N3CCOCC3)nc(N3CCOCC3)n2)cn1 (library stock concentration (final ~1000-fold dilution): 10 mM)	not fulfilled
CCC(=O)N1CCN(c2ccc(-n3c(=O)ccc4cnc5ccc(-c6cnc7ccccc7c6)cc5c43)cc2C(F)(F)F)CC1 (library stock concentration (final ~1000-fold dilution): 2 mM)	not fulfilled

Evaluate FC(F)c1nc2ccccc2n1-c1nc(N2CCOCC2)nc(N2CCOCC2)n1 (library stock concentration (final ~1000-fold dilution): 10 mM) : NF-kB SEAP reporter activity at minimum 0.9?
not fulfilled

Try the molecule O=C(O)CCN1C(=O)C(=Cc2ccc(-c3ccc([N+](=O)[O-])cc3)o2)SC1=S (library stock concentration (final ~1000-fold dilution): 10 mM)
not fulfilled

Try the molecule CCOC(=O)C(CCc1ccccc1)NC1CCc2ccccc2N(CC(=O)O)C1=O.Cl (stereo unspecified) (library stock concentration (final ~1000-fold dilution): 10 mM)
fulfilled

Try the molecule COc1ccc(F)c(F)c1C(=O)c1cnc(NC2CCN(S(C)(=O)=O)CC2)nc1N (library stock concentration (final ~1000-fold dilution): 10 mM)
fulfilled

Try the molecule CCCS(=O)(=O)Nc1ccc(F)c(C(=O)c2c[nH]c3ncc(Cl)cc23)c1F (library stock concentration (final ~1000-fold dilution): 10 mM)
not fulfilled

Try the molecule O=C(c1c(F)ccc(NS(=O)(=O)N2CCC(F)C2)c1F)c1c[nH]c2ncc(-c3cnc(C4CC4)nc3)cc12 (stereo unspecified) (library stock concentration (final ~1000-fold dilution): 10 mM)
not fulfilled

Try the molecule CC(=O)OC1(C(C)=O)CCC2C3C=C(C)C4=CC(=O)CCC4(C)C3CCC21C (stereo unspecified) (library stock concentration (final ~1000-fold dilution): 10 mM)
fulfilled

* * *

Test system: RAW-Dual
Test: NF-kB SEAP reporter activity, fold change vs agonist alone; higher = enhanced NF-kB activity
Conditions: library stock concentration (final ~1000-fold dilution): 10 mM; cytotoxicity flag (confluency mask): cytotoxic (confluency <70% of control); agonist: Imiquimod (TLR7) […]
In all, about 2,900 compounds were measured (“NF-kB SEAP reporter activity, fold change vs agonist alone”: median about 0.99, highest 2% from about 2.6 on). Many of the other results were omitted from the sample, so the highest values are more common in it than they were.
quantity.kind: NF-kB SEAP reporter activity
Please state the value as a number alone, without comment.

Some compounds with recorded NF-kB SEAP reporter activity:
compound	quantity.kind	value.observed
CCC1(O)C(=O)OCc2c1cc1n(c2=O)Cc2cc3cc(O)ccc3nc2-1 (centres undefined)	NF-kB SEAP reporter activity	2.34
CC(C)c1cnn2c(NCc3ccccc3)cc(NCCCCCCN)nc12.Cl	NF-kB SEAP reporter activity	2.18
CCOc1cc(C(=O)N2CCC(N3CCN(C)CC3)CC2)ccc1Nc1ncc2c(n1)N(C1CCCC1)c1ccccc1C(=O)N2C	NF-kB SEAP reporter activity	1.44
Cl.Nc1ncccc1-c1nc2ccc(-c3ccccc3)nc2n1-c1ccc(C2(N)CCC2)cc1	NF-kB SEAP reporter activity	1.7
CN(c1ncccc1CNc1nc(Nc2ccc3c(c2)CC(=O)N3)ncc1C(F)(F)F)S(C)(=O)=O.Cl	NF-kB SEAP reporter activity	0.169
COc1cc(N2CCC(N)CC2)ccc1Nc1ncc(Cl)c(-c2c[nH]c3ccccc23)n1	NF-kB SEAP reporter activity	0.251
Nc1ccn(C2OC(CO)C(O)C2(F)F)c(=O)n1 (centres undefined)	NF-kB SEAP reporter activity	2.14
CCCCc1nc(-c2ccc(OCCCN(CC)CC)cc2)cn1-c1ccc(Oc2ccc(Cl)cc2)cc1	NF-kB SEAP reporter activity	1.53

Could you now consider this next compound?
Return reported NF-kB SEAP reporter activity; argument: CCCSc1nc(NC2CC2c2ccc(F)c(F)c2)c2nnn(C3CC(OCCO)C(O)C3O)c2n1 (centres undefined)
1.05

* * *

Tested on: RAW-Dual
Assay: NF-kB SEAP reporter activity, fold change vs agonist alone; cytotoxicity flag (confluency mask): cytotoxic (confluency <70% of control); higher = enhanced NF-kB activity
Conditions: agonist: LPS (TLR4) 0.1 ug/mL
In all, about 2,900 compounds were measured (“NF-kB SEAP reporter activity, fold change vs agonist alone”: median about 0.99, highest 2% from about 2.6 on). The sample holds the highest values, similar compounds and a random draw of the others, so the mix is not that of the screen.
# binarize NF-kB SEAP reporter activity: threshold 2 inclusive, high side Condition met, low side Condition not met

compound	assigned.label
Cc1sc2c(c1C)C(c1ccc(Cl)cc1)=N[C@@H](CC(=O)NCCCCCCCCNC(=O)COc1cccc3c1C(=O)N(C1CCC(=O)NC1=O)C3=O)c1nnc(C)n1-2 (stereo not given in full) (library stock concentration (final ~1000-fold dilution): 10 mM)	Condition met
O=S(=O)(NCCN1CCNCC1)c1ccc(NC2CCCCC2)c(NCc2ccccc2)c1 (library stock concentration (final ~1000-fold dilution): 10 mM)	Condition not met
CCn1c2ccccc2c2cc(CNCc3ccccc3OC)ccc21.Cl (library stock concentration (final ~1000-fold dilution): 10 mM)	Condition not met
COc1ccc(-c2oc3c(CC=C(C)C)c(O)cc(O)c3c(=O)c2OC2OC(C)C(O)C(O)C2O)cc1 (stereo not given) (library stock concentration (final ~1000-fold dilution): 10 mM)	Condition met

Evaluate C=C(Cc1ccccc1Cl)C(=O)OCC (library stock concentration (final ~1000-fold dilution): 10 mM) : NF-kB SEAP reporter activity at minimum 2?
Condition not met

* * *

Tested on: RAW-Dual
Experiment: NF-kB SEAP reporter activity, fold change vs agonist alone; cytotoxicity flag (confluency mask): cytotoxic (confluency <70% of control); higher = enhanced NF-kB activity
Conditions: agonist: Pam3CSK4 (TLR2/1) 0.1 ug/mL
In all, about 2,900 compounds were measured (“NF-kB SEAP reporter activity, fold change vs agonist alone”: median about 0.99, highest 2% from about 2.6 on). This excerpt belongs to a sample that is enriched for the highest values.
quantity.kind: NF-kB SEAP reporter activity
Please state the value as a number alone, without comment.

compound	value.observed
CC/C=C\C/C=C\C/C=C\C/C=C\C/C=C\C/C=C\CCC(=O)NCCNC(=O)c1ccccc1O (library stock concentration (final ~1000-fold dilution): 10 mM)	0.184
Cc1ccc(NC(=O)Nc2cc(-c3ccccc3-c3nnn[nH]3)ccc2N(CC(C)C)CC(C)C)cc1 (library stock concentration (final ~1000-fold dilution): 10 mM)	0.333
COCCOc1ccc2c(c1)ncn2-c1ccc2cccc(N3CCC(N)CC3)c2n1 (library stock concentration (final ~1000-fold dilution): 10 mM)	1.32
Nc1ncnc2c1c(I)cn2C1OC(CO)C(O)C1O (stereo unspecified) (library stock concentration (final ~1000-fold dilution): 10 mM)	0.123
CNCCCC1c2ccccc2C=Cc2ccccc21.Cl (library stock concentration (final ~1000-fold dilution): 10 mM)	0.687
COc1cc(OCc2cccc(-c3ccccc3)c2C)cc(OC)c1CN1CCCCC1C(=O)O (stereo unspecified) (library stock concentration (final ~1000-fold dilution): 10 mM)	1.17
Cc1sc2c(c1C)C(c1ccc(Cl)cc1)=N[C@@H](CC(=O)NCCCCCCCCNC(=O)COc1cccc3c1C(=O)N(C1CCC(=O)NC1=O)C3=O)c1nnc(C)n1-2 (stereo partly specified) (library stock concentration (final ~1000-fold dilution): 10 mM)	3
CC1(COc2ccc3c(c2)ncn3-c2ccc3cccc(N4CCC(N)CC4)c3n2)COC1 (library stock concentration (final ~1000-fold dilution): 10 mM)	1.6

Form: Entry = c1cc(-c2cnn3cc(-c4ccc(N5CCNCC5)cc4)cnc23)c2cccnc2c1 (library stock concentration (final ~1000-fold dilution): 10 mM) | System = RAW-Dual | NF-kB SEAP reporter activity = ____
0.149

Try the compound NC(=O)N1CCC(CC(=O)N2CCC(C3c4ncc(Br)cc4CCc4cc(Cl)cc(Br)c43)CC2)CC1 (stereo unspecified) (library stock concentration (final ~1000-fold dilution): 10 mM)
0.223

Try the compound CC(Oc1ccc2[nH]nc(/C=C/c3cnn(CCO)c3)c2c1)c1c(Cl)cncc1Cl (stereo unspecified) (library stock concentration (final ~1000-fold dilution): 10 mM)
0.139
